Target: TBK1 (Homo sapiens, UniProt Q9UHD2)
Construct: His-tag; made in house; host or cells: Sf9 insect cells
Sequence (Q9UHD2 1-729): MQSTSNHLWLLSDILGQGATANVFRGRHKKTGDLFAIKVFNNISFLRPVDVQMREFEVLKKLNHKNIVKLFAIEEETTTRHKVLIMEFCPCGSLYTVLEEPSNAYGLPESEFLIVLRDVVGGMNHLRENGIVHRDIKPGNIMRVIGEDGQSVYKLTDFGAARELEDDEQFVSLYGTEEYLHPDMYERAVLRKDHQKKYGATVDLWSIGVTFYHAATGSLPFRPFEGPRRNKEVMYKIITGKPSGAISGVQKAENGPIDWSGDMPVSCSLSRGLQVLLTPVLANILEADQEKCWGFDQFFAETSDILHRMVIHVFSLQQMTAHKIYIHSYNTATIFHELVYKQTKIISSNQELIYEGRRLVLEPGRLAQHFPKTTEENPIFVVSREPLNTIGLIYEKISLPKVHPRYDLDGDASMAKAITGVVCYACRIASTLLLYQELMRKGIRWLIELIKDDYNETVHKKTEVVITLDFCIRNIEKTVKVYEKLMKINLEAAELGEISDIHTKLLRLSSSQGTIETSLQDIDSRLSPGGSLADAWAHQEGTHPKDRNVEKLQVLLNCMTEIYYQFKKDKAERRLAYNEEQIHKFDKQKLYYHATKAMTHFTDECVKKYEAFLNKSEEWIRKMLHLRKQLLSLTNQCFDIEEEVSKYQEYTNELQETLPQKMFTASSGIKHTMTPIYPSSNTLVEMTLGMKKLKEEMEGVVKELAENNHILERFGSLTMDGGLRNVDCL
Test: In-vitro TBK1 kinase assay ([γ33]ATP filter-plate)
Assay type: biochemical
Conditions: text bins; read-out: IC50 for inhibition of the kinase activity of TBK1
pIC50: −log10 of the molar value.
PARAMETER: pIC50

>>> print(df.to_string())
                           substance_smiles                          system_name  recorded_value
0  CC(C)C(=O)Nc1ccc(-c2ccnc(Nc3ccc(CC(=O)N4CCOCC4)cc3)n2)cc1C#N  TBK1 (Homo sapiens, UniProt Q9UHD2)    7.00 to 8.00
1  N#Cc1cc(-c2ccnc(Nc3ccc(N4CCOCC4)cc3)n2)ccc1OCC[C@H]1CCCCN1C(=O)CO  TBK1 (Homo sapiens, UniProt Q9UHD2)    7.00 to 8.00
2  COc1cc(Nc2nccc(-c3ccc(OC4CCOCC4)c(C#N)c3)n2)ccc1C(=O)N1CCN(C)CC1  TBK1 (Homo sapiens, UniProt Q9UHD2)          > 8.00
3  CCN(CC)CCOc1ccc(Nc2nccc(-c3ccc(OC4CCOCC4)c(C#N)c3)n2)cc1OC  TBK1 (Homo sapiens, UniProt Q9UHD2)          > 8.00

----------
Quick reference for pIC50 among some molecules
target: TBK1 (Homo sapiens, UniProt Q9UHD2); construct: His-tag; made in house; host or cells: Sf9 insect cells; experiment: In-vitro TBK1 kinase assay ([γ33]ATP filter-plate); type: biochemical; settings: text bins; read-out: IC50 for inhibition of the kinase activity of TBK1
pIC50: −log10 of the molar value.
PARAMETER: pIC50

>>> print(df.to_string())
                                    molecule  recorded_value
 0  N#Cc1cc(-c2ccnc(Nc3ccc(CS(=O)(=O)NCCO)cc3)n2)ccc1NC(=O)C1CC1          > 8.00
 1  COc1ccc(Nc2nccc(-c3cc(Cl)cc(C#N)c3)n2)cc1OC    7.00 to 8.00
 2  CN(C)S(=O)(=O)Cc1cccc(Nc2nccc(-c3ccc(OC4CCOCC4)c(C#N)c3)n2)c1          > 8.00
 3  COc1cc(Nc2nccc(-c3ccc(OC4CCOCC4)c(C#N)c3)n2)ccc1S(=O)(=O)NC1CCN(C)CC1          > 8.00
 4  COCCOC1CN(c2cc(Nc3nccc(-c4ccc(OC5CCOCC5)c(C#N)c4)n3)ccc2C)C1          > 8.00
 5  COc1cc(N)cc(Nc2nccc(-c3ccc(OC)c(C#N)c3)n2)c1    7.00 to 8.00
 6  C[C@H](O)C(=O)N1CCC(Oc2ccc(-c3ccnc(Nc4ccc(C(=O)N(C)CCN(C)C)cc4)n3)cc2C#N)CC1          > 8.00
 7  CS(=O)(=O)NCCOc1ccc(-c2ccnc(Nc3ccc(N4CCOCC4)cc3)n2)cc1C#N    7.00 to 8.00
 8  COc1ccc(-c2ccnc(Nc3cccc(OCCN4CCOCC4)c3)n2)cc1C#N    7.00 to 8.00
 9  COc1ccc(-c2ccnc(Nc3ccc(S(=O)(=O)NCCN)c(OC)c3)n2)cc1C#N    7.00 to 8.00
10  COc1cc(Nc2nccc(-c3ccc(OC4CCOCC4)c(C#N)c3)n2)ccc1C(=O)NCCC1CCCN1C (stereo not shown)          > 8.00
11  N#Cc1cc(-c2ccnc(Nc3ccc(NC(=O)N4CCOCC4)cc3)n2)ccc1OC1CCOCC1          > 8.00
12  COc1ccc(Nc2nccc(-c3ccc(C)c(C#N)c3)n2)cc1OC    7.00 to 8.00
13  COc1ccc(-c2ccnc(Nc3cc(CN4CCOCC4)c(OC)c(OC)c3)n2)cc1C#N    7.00 to 8.00
14  N#Cc1cc(-c2ccnc(Nc3cccc(CN4CCC(O)C4)c3)n2)ccc1OC1CCOCC1 (stereo not shown)          > 8.00
15  CNS(=O)(=O)Cc1cccc(Nc2nccc(-c3ccc(OC4CCOCC4)c(C#N)c3)n2)c1          > 8.00

Measured values drawn from patent US20150352108A1 for this set.
